Just for reference, patent US12044680B2 is where these values come from.

- ASSAYED TARGET: HLA-A*02:01 tetramers with exiting peptide ILKEKK(DNP)VHGV (Homo sapiens, UniProt P04439, D140Y/D185E/D98H/E176V/E277Q/G131W/G231S/I119V/I121R/I166T/I218V/L300P/L318F/N151K/N90K/P208A/P217A/Q86G/Q94H/R138H/R169H/T345S)
- Construct: prepared as known in the art, for instance by deletion of the transmembrane domain and the cytoplasmic domain; made in house
- EXPERIMENT DESCRIPTION: HLA-A*02:01 peptide exchange quantitation
- Type: binding
- PROTOCOL CONDITIONS: entering peptide 20 μM final, 4 hours; HLA-A*02:01 tetramer
- Procedure: Peptide Exchange Procedure: 50 μL of the tetramer solution is combined with 1 μL of peptide exchange factor, such as glycyl methionine, (resulting in a final peptide exchange factor concentration of 5-20 mM) and 1 μL of the peptide solution and the resulting solution was mixed, then incubated at room temperature for four hours. Sandwich magnetic bead immunoassay: 20 μL capture beads is pipetted into wells 1-4 on a 96-well plate. 5 μL assay buffer is pipetted into well 2. […]
% peptide exchange less than 40% is True; % peptide exchange greater than or equal to 40% is False.

Worked cases, answers included:
WMHKVPASL :: False
IRLRPGGKK :: True
GLADQLIHL :: False

Query: Dear colleague, could you confirm whether % peptide exchange of RIKDFLRNL falls below 40%? Thanks.
Reply: True
